Recorded pIC50 values (UniProt P80457) are given below.
Answers are plain numbers, as −log10 of the molar value.

Dear colleague, could you please provide pIC50 for the compounds listed below?
1. Cc1cc(C)c2c(C#N)cc(-c3ccc(C(=O)O)cc3)n2c1
2. Cc1ccn2c(-c3ccc(C(=O)O)c(F)c3)cc(C#N)c2c1F
3. N#Cc1cc(-c2ccc(C(=O)O)c(O)c2)n2ccccc12
4. CCc1cccn2c(-c3ccc(C(=O)O)c(O)c3)cc(C#N)c12

Result:
[8.05, 8.00, 8.40, 8.22]

* * *

Target: Xanthine oxidase (from bovine milk, Sigma) (Bos taurus, UniProt P80457)
Sequence (P80457 whole entry): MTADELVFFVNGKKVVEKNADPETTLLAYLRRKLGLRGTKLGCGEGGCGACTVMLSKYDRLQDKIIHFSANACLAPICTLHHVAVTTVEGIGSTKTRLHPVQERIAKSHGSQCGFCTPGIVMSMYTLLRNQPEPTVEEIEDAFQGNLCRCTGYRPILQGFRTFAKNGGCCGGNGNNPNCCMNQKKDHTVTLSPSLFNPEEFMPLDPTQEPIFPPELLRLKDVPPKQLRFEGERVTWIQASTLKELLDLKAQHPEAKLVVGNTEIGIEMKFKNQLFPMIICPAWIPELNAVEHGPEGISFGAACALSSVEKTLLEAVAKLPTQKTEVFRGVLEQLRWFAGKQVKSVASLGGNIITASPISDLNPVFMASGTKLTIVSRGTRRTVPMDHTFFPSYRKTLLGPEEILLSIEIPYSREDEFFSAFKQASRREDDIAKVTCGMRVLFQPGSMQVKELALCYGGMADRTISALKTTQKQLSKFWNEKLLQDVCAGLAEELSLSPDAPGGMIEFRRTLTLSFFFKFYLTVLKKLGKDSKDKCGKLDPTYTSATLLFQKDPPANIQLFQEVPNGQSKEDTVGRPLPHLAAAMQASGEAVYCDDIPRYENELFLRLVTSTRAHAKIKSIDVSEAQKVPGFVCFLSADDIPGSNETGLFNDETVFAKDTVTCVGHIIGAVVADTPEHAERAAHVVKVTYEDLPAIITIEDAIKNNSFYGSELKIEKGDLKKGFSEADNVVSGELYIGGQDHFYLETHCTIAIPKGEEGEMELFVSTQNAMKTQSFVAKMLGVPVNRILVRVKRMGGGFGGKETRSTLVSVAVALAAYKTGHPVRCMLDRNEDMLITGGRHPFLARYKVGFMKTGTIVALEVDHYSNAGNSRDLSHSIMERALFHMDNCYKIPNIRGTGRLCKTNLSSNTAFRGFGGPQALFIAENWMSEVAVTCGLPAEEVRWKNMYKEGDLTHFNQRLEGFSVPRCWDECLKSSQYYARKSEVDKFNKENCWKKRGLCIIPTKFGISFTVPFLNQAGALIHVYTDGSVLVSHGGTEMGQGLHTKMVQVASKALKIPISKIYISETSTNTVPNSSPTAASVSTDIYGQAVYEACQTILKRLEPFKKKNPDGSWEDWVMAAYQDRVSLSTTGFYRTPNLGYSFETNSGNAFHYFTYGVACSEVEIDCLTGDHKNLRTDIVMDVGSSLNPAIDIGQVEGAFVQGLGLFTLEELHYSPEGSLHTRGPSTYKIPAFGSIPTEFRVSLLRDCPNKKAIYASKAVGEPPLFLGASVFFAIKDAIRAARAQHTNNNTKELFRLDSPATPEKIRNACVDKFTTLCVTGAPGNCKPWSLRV
Metric: IC50 (nM)
Answers are plain numbers, in nM.

CN(C)c1ccn2c(-c3ccc(C(=O)O)c(O)c3)cc(C#N)c2c1 [Example 59] :: 10
Cc1ccn2c(-c3cnc(C(=O)O)c(O)c3)cc(C#N)c2c1 [Example 66] :: 2
Cc1ccn2c(-c3ccc(C(=O)O)c(O)c3)cc(C#N)c2c1 [Example 18] :: 3
COc1ccn2c(-c3ccc(C(=O)O)cc3)cc(C#N)c2c1 [Example 45] :: 5
N#Cc1cc(-c2ccc(C(=O)O)cc2)n2ccc3c(c12)CCCC3 [Example 9] :: 3
N#Cc1cc(-c2ccc(C(=O)O)nc2)n2ccccc12 [Example 70] :: 18

Dear colleague, could you please provide IC50 for the molecules listed below?
1. Cc1cc2c(C#N)cc(-c3ccc(C(=O)O)cc3)n2cc1F [Example 8]
2. CC(C)Oc1ccn2c(-c3ccc(C(=O)O)cc3)cc(C#N)c2c1C(F)(F)F [Example 47]
3. Cc1cc2c(C#N)cc(-c3ccc(C(=O)O)cc3)n2cc1Cl [Example 36]
4. COc1cc2c(C#N)cc(-c3ccc(C(=O)O)c(O)c3)n2cc1C [Example 60]
5. Cc1ccn2c(-c3ccc(C(=O)O)cc3)cc(C#N)c2c1 [Example 2]
6. CC(C)c1ccn2c(-c3ccc(C(=O)O)cc3)cc(C#N)c2c1 [Example 42]

Result:
1: 6; 2: 2; 3: 8; 4: 15; 5: 4; 6: 4

Dear colleague, could you please provide IC50 for the molecules listed below?
1. Cc1cc2c(C#N)cc(-c3ccc(C(=O)O)c(O)c3)n2cc1F [Example 22]
2. Cc1cc2c(C#N)cc(-c3ccc(C(=O)O)c(O)c3)n2cc1Cl [Example 49]
3. CCc1ccc2c(C#N)cc(-c3ccc(C(=O)O)cc3)n2c1 [Example 12]
4. N#Cc1cc(-c2ccc(C(=O)O)c(O)c2)n2ccc(C(F)(F)F)cc12 [Example 27]
5. Cc1c(Cl)ccn2c(-c3ccc(C(=O)O)cc3)cc(C#N)c12 [Example 39]
6. N#Cc1cc(-c2ccc(C(=O)O)cc2)n2ccc(Br)cc12 [Example 64]

Result:
[3, 2, 11, 5, 8, 8]

Task: Look up and state reported IC50 for N#Cc1cc(-c2ccc(C(=O)O)c(O)c2)n2ccc(CF)cc12 [Example 63]
Result: 8
